// MIC lookup, one value per entry
Test system: Klebsiella 63
EXPERIMENT NOTES: MIC, liquid medium test tube series dilution test
Type: cell-based
CONDITION NOTES: Klebsiella 63, 24 hours, 37°C
Response body: numeric value in units/ml, unit text excluded.

Solved cases below.
- MOLECULE: "CN(C(=O)N[C@@H](C(=O)N[C@@H]1C(=O)N2[C@@H]1SC(C)(C)[C@@H]2C(=O)O)c1ccccc1)C(=O)C1CCCCC1"
  UNITS TEXT: "units/ml"
  MIC: 100
- MOLECULE: "C=CCOC(=O)N(C)C(=O)N[C@@H](C(=O)N[C@@H]1C(=O)N2[C@@H]1SC(C)(C)[C@@H]2C(=O)O)c1ccccc1"
  UNITS TEXT: "units/ml"
  MIC: 25

Now examine the next entry.
Ask: Which MIC is listed for CCCCOC(=O)N(C)C(=O)N[C@@H](C(=O)N[C@@H]1C(=O)N2[C@@H]1SC(C)(C)[C@@H]2C(=O)O)c1ccccc1 [Example 12] ?
Result: 100

* * *

System: Psdm. aerug. Walter
EXPERIMENT NOTES: MIC, liquid medium test tube series dilution test
Type: cell-based, Pseudomonas aerug.
CONDITION NOTES: 24 hours, 37°C
ATTRIBUTE MEASURED: MIC (units/ml)
Response body: numeric value in units/ml, unit text excluded.

- SMILES TEXT: "CC1(C)S[C@@H]2[C@H](NC(=O)[C@H](NC(=O)N3CCCCC3=O)c3ccccc3)C(=O)N2[C@H]1C(=O)O"
  UNITS TEXT: "units/ml"
  READING: 50

Now examine the next entry.
Ask: What is its MIC for Psdm. aerug. Walter? Entry: `CCN(C(=O)N[C@@H](C(=O)N[C@@H]1C(=O)N2[C@@H]1SC(C)(C)[C@@H]2C(=O)O)c1ccccc1)C(=O)c1ccccc1`
Result: 50

* * *

// MIC lookup, one value per entry
System: Psdm. aerug. Walter
EXPERIMENT NOTES: MIC, liquid medium test tube series dilution test
Assay type: cell-based, Pseudomonas aerug.
CONDITION NOTES: 24 hours, 37°C

- COMPOUND: "CN(C(=O)N[C@@H](C(=O)N[C@@H]1C(=O)N2[C@@H]1SC(C)(C)[C@@H]2C(=O)O)c1ccccc1)C(=O)OC1CCCCC1 [Example 67]"
  TARGET SYSTEM: "Psdm. aerug. Walter"
  MIC: "50 units/ml"

Ask: Which MIC is listed for CN(C(=O)CCCCl)C(=O)N[C@@H](C(=O)N[C@@H]1C(=O)N2[C@@H]1SC(C)(C)[C@@H]2C(=O)O)c1ccccc1 [Example 24] ?
Result: 100 units/ml

Ask: Here is the next compound: `CCCN(C(C)=O)C(=O)N[C@@H](C(=O)N[C@@H]1C(=O)N2[C@@H]1SC(C)(C)[C@@H]2C(=O)O)c1ccccc1`
Result: 20-100 units/ml

Ask: Here is the next compound: `COC(=O)N(C)C(=O)N[C@H](C(=O)N[C@@H]1C(=O)N2[C@@H]1SC(C)(C)[C@@H]2C(=O)O)c1c(Cl)cccc1Cl`
Result: > 500 units/ml

Ask: Here is the next compound: `CNC(=O)N(C)C(=O)N[C@@H](C(=O)N[C@@H]1C(=O)N2[C@@H]1SC(C)(C)[C@@H]2C(=O)O)c1ccccc1`
Result: 20-100 units/ml

Ask: Here is the next compound: CC1(C)S[C@@H]2[C@H](NC(=O)[C@H](NC(=O)N3CCNC3=O)c3ccccc3)C(=O)N2[C@H]1C(=O)O [Example 53]
Result: 12,5 units/ml
